Taken from a melting point compilation (Tetko et al.; mined from patent text by program, amines drawn as free bases though some values may be those of a salt).

Each record here notes measured melting point.

Some entries whose results are on file:
>>> print(df.to_string())
                                   compound       measured
0  Cc1cc(Nc2ccnc(Nc3ccc(S(=O)(=O)N(C)C4CCN(Cc5csnn5)CC4)cc3)n2)ccc1F         168 °C
1                        CCCn1cnc2ncnn2c1=S  168 to 169 °C
2  COc1ccc2c(=O)c(-c3ccc(F)cc3)c(-c3ccc(S(N)(=O)=O)cc3)oc2c1         245 °C
3  O=C(O)C1CC2CCC1c1[nH]c3ccccc3c12 (configuration not stated)  212 to 214 °C
4  CC1=CC(c2cccc(C(F)(F)F)c2)C2=C(CCCC2=O)N1 (configuration not stated)  184 to 185 °C
5                CC1=C(C(=O)Nc2ccccc2)OCCO1    85 to 87 °C
6   COc1cc(OS(=O)(=O)C(F)(F)F)c(Cl)c(C)c1Cl          74 °C
7        CCCn1c(=O)c2cc(C(=O)O)cn2c2ccccc21  260 to 262 °C

What the record says about "CCc1ncnc(N[C@H]2CC[C@@H](CO)CC2)c1Cl" : melting point is 71 to 72 °C

What the record says about O=C1NC(=O)C(c2cn3c4c(cccc24)CCC3)C1c1ccc(O)cc1 (configuration not stated) : melting point is 105 to 107 °C

What the record says about "CC(=O)c1cc(C(C)(C)C)cc(C(=O)O)c1O" : melting point is 159 to 161 °C

What the record says about "N#CC(c1ccccc1)(c1ccccc1)c1ccc([N+](=O)[O-])cn1" : melting point is 94 to 99 °C

What the record says about "CCOC(=O)c1cc2c(O)c(C(=O)OCC)n(C)c2nc1C(=O)OCC" : melting point is 129 to 130 °C

What the record says about Cn1nc(Cl)c(C(=O)C(Br)c2ccccc2)c1Cl (configuration not stated) : melting point is 74.5 to 75.5 °C

What the record says about "CC(C)OP(=O)(Cc1c(C(C)(C)C)cc(O)cc1C(C)(C)C)OC(C)C" : melting point is 100 °C

What the record says about CC(C)c1ccc(N(Cc2cnn(CC(F)(F)F)c2)C(=O)C2CCCc3c(O)cccc32)cn1 (configuration not stated) : melting point is 128 °C

What the record says about CCOc1cncc(N2CCN3CCCC3C2)n1 (configuration not stated) : melting point is 101 to 102 °C

====

Each record here notes measured melting point.

Some entries whose results are on file:
                                   compound   measure_name       measured
0  O=C(NC(C(=O)OCc1ccccc1)C(=O)C1CC1)c1ccc(F)cc1 (stereo unspecified)  melting point  94.5 to 96 °C
1  Cc1ccc(-n2c(-c3sc(NC(=O)c4ccccc4)nc3-c3ccccc3)nc3ccccc3c2=O)cc1  melting point       > 275 °C
2                         CCOCCc1cc(O)ccc1N  melting point         102 °C

What the record says about "CCOC(=O)CSc1ccc2nncn2n1" : melting point is 130 to 133 °C

What the record says about O=C(Nc1ccc(CN2C(=O)[C@H]3CCC[C@H]3N(C(=O)CCl)c3ccccc32)cc1)Oc1ccccc1 (relative stereo) : melting point is 207 to 210 °C

What the record says about "C[C@@H](NC(=O)c1c(N)cc(Cl)cc1Cl)c1ccccc1" : melting point is 115 to 119 °C

What the record says about "COc1ccc2c(c1O)C(=O)CC(c1ccc(F)cc1)=N2" : melting point is 60 to 62 °C

What the record says about "CCCc1c(OCCCCCC(=O)c2cc(OC)c(OC)cc2F)ccc(C(=O)O)c1O" : melting point is 146 to 147 °C
